Below, each entry is listed alongside its reported PBM binding z-score.
test system: LXRa:RXRa (NR concentration 270 nM, RXRa partner concentration 90 nM); test: PBM binding z-score (relative to random genomic background probes); higher = stronger binding; sequences stand for … in GC…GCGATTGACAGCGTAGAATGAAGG

Below are worked cases with known answers.
In [3]: df
Out[3]:
                     residue_sequence     val
0  TGAATGAGGCTAAAGATCAGGGAACGTGGCGTCG  -0.541
1  CCTAGCAGGCCAATCTGGGCCACTCAAGGCTTGA  -0.644
2  CGTCCACGGTCAATGCTAGGTCAGTGAAAGCATT     1.1

Task item: Fill in the blank: the reported PBM binding z-score of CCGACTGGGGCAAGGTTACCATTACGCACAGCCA is ____.
Reply: 0.227

Task item: Fill in the blank: the reported PBM binding z-score of ATCGAAAGGTCGACGAGGTGAATATACACCGTTT is ____.
Reply: 3.82

Task item: Fill in the blank: the reported PBM binding z-score of TCTAATTGGTCAAAGGTCACACACTCGAAATGCG is ____.
Reply: 5.81

Task item: Fill in the blank: the reported PBM binding z-score of TAGCCTAGGTCACTCAGGGGCCAGTATAGAAAGC is ____.
Reply: 2.18

Task item: Fill in the blank: the reported PBM binding z-score of TCTAGTTGGTCAAAGGTCGCACACTCGAAATGCG is ____.
Reply: 2.82

Task item: Fill in the blank: the reported PBM binding z-score of TTACCAAGGTGAAGGTCGTTAATCCCTCTGTAGA is ____.
Reply: 1.12

Task item: Fill in the blank: the reported PBM binding z-score of ATACCAAGGTGATCGTGCGGTCGTTGATACTAAC is ____.
Reply: 0.293

Task item: Fill in the blank: the reported PBM binding z-score of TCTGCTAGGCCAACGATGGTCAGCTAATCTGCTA is ____.
Reply: -0.741

Task item: Fill in the blank: the reported PBM binding z-score of ACTATTAGTTGACTTAGGGCAACCGCTACGACGC is ____.
Reply: 0.317

Taken from the supplement of paper PMC6555819.
